Hey, just so you know, these numbers are from ChEMBL document CHEMBL1961873.

target: Tyrosine-protein kinase Blk (Homo sapiens) (UniProt P51451); conditions: at 0.1 µM;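 note: reported value is the mean percent inhibition of BLK kinase activity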
Sequence (P51451 2-505 limits assumed): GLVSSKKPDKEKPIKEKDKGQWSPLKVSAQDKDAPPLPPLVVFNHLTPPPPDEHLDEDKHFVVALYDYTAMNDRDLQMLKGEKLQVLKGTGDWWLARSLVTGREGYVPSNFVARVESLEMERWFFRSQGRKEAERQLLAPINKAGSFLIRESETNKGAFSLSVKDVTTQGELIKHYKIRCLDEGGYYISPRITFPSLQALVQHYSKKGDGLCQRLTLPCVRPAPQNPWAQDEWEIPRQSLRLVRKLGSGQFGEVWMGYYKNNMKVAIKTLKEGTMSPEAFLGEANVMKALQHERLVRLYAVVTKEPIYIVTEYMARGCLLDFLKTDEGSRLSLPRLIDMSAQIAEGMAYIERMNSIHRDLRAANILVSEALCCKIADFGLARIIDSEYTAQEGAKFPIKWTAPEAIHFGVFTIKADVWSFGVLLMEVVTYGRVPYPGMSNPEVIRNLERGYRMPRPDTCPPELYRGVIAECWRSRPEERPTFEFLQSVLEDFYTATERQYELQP
# cutoff 2% applies to inhibition; >= gives yes (1), < gives no (0)

smiles-entry: CCn1c(-c2nonc2N)nc2ccccc21
discrete-label: no (0)

Field: next molecule
### Prompt Form field: inhibition at least 2%? Entry: "COc1ccc(-c2oc3ncnc(N)c3c2-c2ccc(NC(=O)Nc3cc(C(F)(F)F)ccc3F)cc2)cc1"
### Response yes (1)

---

target: Protein kinase C beta type (Homo sapiens); details: at 0.1 µM;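 note: PKC-beta1 splice variant of the enzyme, figure reported as mean inhibition, measured within the GSK PKIS kinase profiling panel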
Description: GSK_PKIS: PKC-beta1 (splice variant) mean inhibition at 0.1 uM [Nanosyn]
# inhibition values compiled below
Supply the numeric figure in %, leaving out any unit text.

// below: answered compounds
smiles-entry: COc1cc(Nc2nccc(Nc3ccc4c(C)n[nH]c4c3)n2)cc(OC)c1OC
value-measured: 1.4
//
smiles-entry: COc1cccc(-c2c[nH]c3c(N/N=C/c4ccncc4)ncnc23)c1
value-measured: 2.33
//
smiles-entry: Cc1ccc(O)cc1Nc1ccnc2cc(-c3ccccn3)ccc12
value-measured: -0.22
//
smiles-entry: Nc1nc(-c2ccc(F)cc2)c(-c2ccc3ncccc3n2)s1
value-measured: 0.21
//
smiles-entry: CCCN(CCS(C)(=O)=O)Cc1ccc(-c2ccc3ncnc(Nc4ccc(OCc5cccc(F)c5)c(Cl)c4)c3c2)o1
value-measured: 0.26
//
smiles-entry: NC(=O)c1sc(-n2cnc3ccc(C(F)(F)F)cc32)cc1OCc1ccccc1Br
value-measured: -0.05
//
smiles-entry: CS(=O)(=O)CCNCc1ccc(-c2ccc3ncnc(Nc4ccc(OCc5ccccc5)c(C(F)(F)F)c4)c3c2)o1
value-measured: 0.21
//
smiles-entry: O=C(O[C@H]1CN[C@H](C#Cc2cc3ncnc(Nc4ccc(Cc5ccccc5)cc4)c3s2)C1)N1CCOCC1
value-measured: 2.02

### Prompt inhibition lookup needed for "COc1cc2ncn(-c3cc(OCc4ccccc4C(F)(F)F)c(C(=O)N(C)C)s3)c2cc1OC" , thanks.
### Response 0.35

---

# inhibition values compiled below
biological target: Mitogen-activated protein kinase 13 (Homo sapiens) (UniProt O15264); conditions: at 1 µM;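 note: mean inhibition of p38delta, screened as part of the GSK PKIS kinase inhibitor set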
Sequence (O15264 whole entry): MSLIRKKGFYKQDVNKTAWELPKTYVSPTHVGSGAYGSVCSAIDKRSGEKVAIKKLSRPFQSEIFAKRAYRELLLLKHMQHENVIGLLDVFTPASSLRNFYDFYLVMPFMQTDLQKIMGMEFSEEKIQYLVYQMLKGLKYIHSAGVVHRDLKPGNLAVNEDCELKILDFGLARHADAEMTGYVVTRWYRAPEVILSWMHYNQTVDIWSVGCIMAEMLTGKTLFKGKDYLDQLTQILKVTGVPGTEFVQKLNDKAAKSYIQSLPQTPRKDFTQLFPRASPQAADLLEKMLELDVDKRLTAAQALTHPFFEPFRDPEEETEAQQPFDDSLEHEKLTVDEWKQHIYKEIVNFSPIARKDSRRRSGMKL
Supply the numeric figure in %, leaving out any unit text.

// below: answered compounds
smiles-entry: COc1cc2c(cc1Nc1nc(Nc3ccsc3C(N)=O)c3cc[nH]c3n1)N(C(=O)CN(C)C)CCC2(C)C
inhibition (%): 9.12
//
smiles-entry: CCn1c(-c2nonc2N)nc2c(C#CC(C)(C)O)nc(OC[C@H](N)c3ccccc3)cc21
inhibition (%): 1.9
//
smiles-entry: COc1cccc(-n2ncc3c(N/N=C/c4ccc(F)cc4)ncnc32)c1
inhibition (%): 6.81
//
smiles-entry: CCc1nn2ncccc2c1-c1ccnc(NC2CC2)n1
inhibition (%): 3.22
//
smiles-entry: COc1ccc(-c2nn3ncccc3c2-c2ccnc(Nc3ccc4c(c3)OCCO4)n2)cc1
inhibition (%): -1.08

### Prompt Notebook: pull reported inhibition for Mitogen-activated protein kinase 13 (Homo sapiens) (UniProt O15264), entry "CCn1c(-c2nonc2N)nc2c(C#CC(C)(C)O)ncc(OC3CCNCC3)c21"
### Response 2.9

### Prompt Notebook: pull reported inhibition for Mitogen-activated protein kinase 13 (Homo sapiens) (UniProt O15264), entry "COc1ccc(-c2oc3ncnc(N)c3c2-c2ccc(NC(=O)Nc3cc(C(F)(F)F)ccc3F)cc2)cc1"
### Response 15.3

### Prompt Notebook: pull reported inhibition for Mitogen-activated protein kinase 13 (Homo sapiens) (UniProt O15264), entry "COc1ccc(-c2cc3c(N)ncnc3o2)cc1"
### Response -2.56

### Prompt Notebook: pull reported inhibition for Mitogen-activated protein kinase 13 (Homo sapiens) (UniProt O15264), entry "CCNC(=O)O[C@H]1CN[C@H](C#Cc2cc3ncnc(Nc4ccc(OCc5cccc(F)c5)c(Cl)c4)c3s2)C1"
### Response 2.64

---

molecular target: Dual specificity mitogen-activated protein kinase kinase 1 (Homo sapiens); conditions: at 1 µM;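 note: values reported are mean inhibition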
# cutoff 4% applies to inhibition; >= gives fulfilled, < gives not fulfilled

smiles-entry: Nc1ncc(-c2cccc(S(N)(=O)=O)c2)c2scc(-c3ccc(F)c(Cl)c3)c12
discrete-label: fulfilled

smiles-entry: Fc1ccc(-c2cc(-c3c[nH]nc3-c3ccccn3)ccn2)cc1
discrete-label: not fulfilled

smiles-entry: CS(=O)(=O)CCNCc1ccc(-c2ccc3ncnc(Nc4ccc(OCc5ccccc5)c(C(F)(F)F)c4)c3c2)o1
discrete-label: not fulfilled

smiles-entry: COc1cc2c(cc1Nc1nc(Nc3ccsc3C(N)=O)c3cc[nH]c3n1)N(C(=O)CN(C)C)CCC2(C)C
discrete-label: fulfilled

smiles-entry: O=C(O[C@H]1CN[C@H](C#Cc2cc3ncnc(Nc4ccc(Cc5ccccc5)cc4)c3s2)C1)N1CCOCC1
discrete-label: not fulfilled

### Prompt Form field: inhibition at least 4%? Entry: "Clc1ccc(-c2nn3ncccc3c2-c2ccnc(Nc3ccccc3)n2)cc1"
### Response not fulfilled

### Prompt Form field: inhibition at least 4%? Entry: "CNC(=O)c1cncc(/C=C/c2ccccc2Cl)c1"
### Response not fulfilled

### Prompt Form field: inhibition at least 4%? Entry: "c1ccc(-c2nc3n(c2-c2ccc4c(c2)OCO4)CCC3)nc1"
### Response not fulfilled

### Prompt Form field: inhibition at least 4%? Entry: "COC(=O)Nc1nc2ccc(Oc3ccc(NC(=O)Nc4cccc(Cl)c4)cc3)cc2[nH]1"
### Response not fulfilled

### Prompt Form field: inhibition at least 4%? Entry: "COc1ccc(-c2nn3ncccc3c2-c2ccnc(Nc3ccc4c(c3)OCCO4)n2)cc1"
### Response not fulfilled

### Prompt Form field: inhibition at least 4%? Entry: "CCN(CC)S(=O)(=O)c1ccc(OC)c(Nc2ncc(-c3ccccc3)o2)c1"
### Response not fulfilled

### Prompt Form field: inhibition at least 4%? Entry: "N#Cc1c(NC(=O)c2ccc(F)cc2)sc2c1CCCC2"
### Response not fulfilled

### Prompt Form field: inhibition at least 4%? Entry: "CC(C)(CO)CNC(=O)c1ccc2c(c1)/C(=N/Nc1ccc(S(N)(=O)=O)cc1)C(=O)N2"
### Response fulfilled

### Prompt Form field: inhibition at least 4%? Entry: "O=S(=O)(CCNCc1ccc(-c2ccc3ncnc(Nc4ccc(OCc5cccc(F)c5)c(Cl)c4)c3c2)o1)c1ccccc1"
### Response fulfilled

---

target: Platelet-derived growth factor receptor beta (Homo sapiens) (UniProt P09619); settings: at 1 µM
Sequence (P09619 whole entry): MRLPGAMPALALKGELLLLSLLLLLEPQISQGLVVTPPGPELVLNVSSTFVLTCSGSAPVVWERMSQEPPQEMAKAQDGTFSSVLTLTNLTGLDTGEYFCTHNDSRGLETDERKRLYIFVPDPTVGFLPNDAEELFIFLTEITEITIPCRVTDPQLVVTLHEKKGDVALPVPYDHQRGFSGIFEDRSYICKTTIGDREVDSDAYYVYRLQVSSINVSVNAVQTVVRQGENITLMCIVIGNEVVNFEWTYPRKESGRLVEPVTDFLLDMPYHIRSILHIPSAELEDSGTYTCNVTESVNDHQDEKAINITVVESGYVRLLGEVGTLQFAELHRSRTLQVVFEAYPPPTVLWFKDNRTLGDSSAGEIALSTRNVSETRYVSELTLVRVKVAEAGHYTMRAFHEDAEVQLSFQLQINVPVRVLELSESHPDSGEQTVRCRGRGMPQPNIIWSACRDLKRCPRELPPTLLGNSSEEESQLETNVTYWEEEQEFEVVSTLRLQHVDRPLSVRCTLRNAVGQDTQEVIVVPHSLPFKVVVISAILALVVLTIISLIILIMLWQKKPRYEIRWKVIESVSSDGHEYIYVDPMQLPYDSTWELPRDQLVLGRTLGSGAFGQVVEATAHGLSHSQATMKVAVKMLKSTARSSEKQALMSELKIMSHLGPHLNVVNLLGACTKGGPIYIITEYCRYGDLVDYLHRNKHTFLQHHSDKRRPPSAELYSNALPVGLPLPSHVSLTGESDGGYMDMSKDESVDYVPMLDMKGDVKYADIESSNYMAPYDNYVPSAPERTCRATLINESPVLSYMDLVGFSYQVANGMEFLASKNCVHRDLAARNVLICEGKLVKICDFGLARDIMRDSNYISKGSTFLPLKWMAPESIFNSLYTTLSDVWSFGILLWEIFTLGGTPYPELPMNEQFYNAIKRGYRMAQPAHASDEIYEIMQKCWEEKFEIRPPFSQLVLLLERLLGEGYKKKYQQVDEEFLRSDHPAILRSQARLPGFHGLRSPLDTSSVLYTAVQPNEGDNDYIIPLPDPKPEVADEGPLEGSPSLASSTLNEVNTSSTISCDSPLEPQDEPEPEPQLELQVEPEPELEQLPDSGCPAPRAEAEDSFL
# inhibition values compiled below
Supply the numeric figure in %, leaving out any unit text.

// below: answered compounds
smiles-entry: NS(=O)(=O)c1ccc(Nc2ncc(-c3ccccc3)o2)cc1
system-name: Platelet-derived growth factor receptor beta (Homo sapiens) (UniProt P09619)
inhibition / %: 46.6

smiles-entry: COC(=O)Nc1nc2ccc(Oc3ccc(NC(=O)Nc4cccc(Cl)c4)cc3)cc2[nH]1
system-name: Platelet-derived growth factor receptor beta (Homo sapiens) (UniProt P09619)
inhibition / %: 28.7

smiles-entry: Fc1ccc(-c2nn3ccccc3c2-c2ccncc2)cc1
system-name: Platelet-derived growth factor receptor beta (Homo sapiens) (UniProt P09619)
inhibition / %: 12.7

smiles-entry: O=S(=O)(CCNCc1ccc(-c2ccc3ncnc(Nc4ccc(OCc5cccc(F)c5)c(Cl)c4)c3c2)o1)c1ccccc1
system-name: Platelet-derived growth factor receptor beta (Homo sapiens) (UniProt P09619);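 note: each value is a mean percent inhibition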
inhibition / %: 12.2

Next, consider the following compound.
### Prompt inhibition lookup needed for "CS(=O)(=O)CCNCc1ccc(-c2ccc3ncnc(Nc4ccc(OCc5ccccc5)c(C(F)(F)F)c4)c3c2)o1" , thanks.
### Response 2

---

# inhibition values compiled below
system: Proto-oncogene tyrosine-protein kinase receptor Ret (Homo sapiens), P07949 [V804L]; conditions: at 0.1 µM
Sequence (P07949 whole entry V804L): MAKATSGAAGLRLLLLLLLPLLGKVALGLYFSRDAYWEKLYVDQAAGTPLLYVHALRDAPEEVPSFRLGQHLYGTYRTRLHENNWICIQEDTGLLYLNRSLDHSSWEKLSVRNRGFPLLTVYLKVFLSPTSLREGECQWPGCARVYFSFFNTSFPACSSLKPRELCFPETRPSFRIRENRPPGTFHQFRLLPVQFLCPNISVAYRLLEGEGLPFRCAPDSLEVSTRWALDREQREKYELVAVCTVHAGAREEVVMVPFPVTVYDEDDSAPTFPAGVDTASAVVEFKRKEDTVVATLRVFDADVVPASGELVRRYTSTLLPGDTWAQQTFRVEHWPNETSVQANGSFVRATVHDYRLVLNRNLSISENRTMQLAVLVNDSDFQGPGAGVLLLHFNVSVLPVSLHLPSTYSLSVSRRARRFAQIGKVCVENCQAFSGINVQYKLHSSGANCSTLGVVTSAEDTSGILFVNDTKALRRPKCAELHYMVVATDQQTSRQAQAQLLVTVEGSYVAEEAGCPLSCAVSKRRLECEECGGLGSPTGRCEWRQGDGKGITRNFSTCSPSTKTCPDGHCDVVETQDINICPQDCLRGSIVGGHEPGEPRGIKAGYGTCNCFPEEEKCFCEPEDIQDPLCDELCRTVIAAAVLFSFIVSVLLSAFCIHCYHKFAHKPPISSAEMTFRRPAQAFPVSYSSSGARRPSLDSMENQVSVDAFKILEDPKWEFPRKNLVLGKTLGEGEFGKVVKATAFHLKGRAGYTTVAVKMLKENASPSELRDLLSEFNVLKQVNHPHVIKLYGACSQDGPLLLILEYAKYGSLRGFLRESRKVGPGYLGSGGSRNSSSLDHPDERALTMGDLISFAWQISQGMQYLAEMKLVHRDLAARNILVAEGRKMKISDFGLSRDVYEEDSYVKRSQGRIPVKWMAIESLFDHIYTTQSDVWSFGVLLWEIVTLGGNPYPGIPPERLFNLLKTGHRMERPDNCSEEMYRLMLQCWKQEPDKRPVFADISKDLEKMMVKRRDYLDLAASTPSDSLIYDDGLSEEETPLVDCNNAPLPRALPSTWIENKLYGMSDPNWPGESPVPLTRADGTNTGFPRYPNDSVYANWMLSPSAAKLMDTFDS
Supply the numeric figure in %, leaving out any unit text.

// below: answered compounds
compound: Clc1ccc(-c2nn3ncccc3c2-c2ccnc(Nc3ccccc3)n2)cc1
readout-units: %
inhibition: 4.29
//
compound: O=S(=O)(CCNCc1ccc(-c2ccc3ncnc(Nc4ccc(OCc5cccc(F)c5)c(Cl)c4)c3c2)o1)c1ccccc1
readout-units: %
inhibition: 7.31
//
compound: COc1cc(/C=N/Nc2ncnc3[nH]ncc23)ccc1O
readout-units: %
inhibition: 17.8
//
compound: COc1ccc(-c2nn3ncccc3c2-c2ccnc(Nc3ccc4c(c3)OCCO4)n2)cc1
readout-units: %
inhibition: 3.01
//
compound: COC(=O)Nc1nc2ccc(Oc3ccc(NC(=O)Nc4cccc(Cl)c4)cc3)cc2[nH]1
readout-units: %
inhibition: 23.8
//
compound: COc1cccc(-c2c[nH]c3c(N/N=C/c4ccncc4)ncnc23)c1
readout-units: %
inhibition: 7.65
//
compound: Fc1ccc(-c2cc(-c3c[nH]nc3-c3ccccn3)ccn2)cc1
readout-units: %
inhibition: 2.33
//
compound: CC1=C(C(=O)Nc2cc(Cl)c3[nH]ncc3c2)C(c2ccc(C(F)(F)F)cc2)CC(=O)N1 (stereo not given)
readout-units: %
inhibition: 4.98

### Prompt Notebook: pull reported inhibition for Proto-oncogene tyrosine-protein kinase receptor Ret (Homo sapiens), P07949 [V804L], entry "CN1CCC(n2cnc(-c3ccc(F)cc3)c2-c2ccnc(N)n2)CC1"
### Response 1.63

### Prompt Notebook: pull reported inhibition for Proto-oncogene tyrosine-protein kinase receptor Ret (Homo sapiens), P07949 [V804L], entry "CS(=O)(=O)CCNCc1ccc(-c2ccc3ncnc(Nc4ccc(OCc5ccccc5)c(C(F)(F)F)c4)c3c2)o1"
### Response 3.65

### Prompt Notebook: pull reported inhibition for Proto-oncogene tyrosine-protein kinase receptor Ret (Homo sapiens), P07949 [V804L], entry "c1ccc(-c2nc3n(c2-c2ccc4c(c2)OCO4)CCC3)nc1"
### Response 1.37
